# Test system: Sam68 (KHDRBS1)
# ASSAY NOTES: compounds binding KHDRBS1 protein – biochemical, small-molecule microarray, 635 nm fluorescence, primary screen (AID 1125);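 also: score merges 667 nm channel intensity with signal to noise over triplicate slides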
# MEASUREMENT CONTEXT: higher = more signal
QUANTITY KIND: composite z-score

INSERT INTO assay_data (compound, quantity_kind, data_value) VALUES
  ('COCC1=C([C@H](O)CCc2ccccc2)[C@H](CO)[C@@H]2C(=O)N(C)C(=O)[C@@H]2C1', 'composite z-score', 0.322),
  ('CC1CC/C=C\[C@H]2OC34C=CCN(Cc5ccccc5)C(=O)[C@H]3N(CCO)C(=O)[C@@H]4C2C(=O)O1 (stereo partly drawn)', 'composite z-score', 0.386),
  ('COC(=O)[C@]1(Cc2ccccc2N=[N+]=[N-])N=C(c2ccc(OCCCO)cc2)O[C@@H]1c1ccccc1', 'composite z-score', 0.622),
  ('O=C(O)[C@@]1(Cc2ccccc2)COC(c2ccc(OCCCO)cc2)=N1', 'composite z-score', -0.21),
  ('COc1ccc([Si](C)(C)[C@@H]2[C@@H](CCO)O[C@]3(C(=O)N(Cc4cccc(N5C(=O)COc6ccccc65)c4)c4ccccc43)[C@H]2C)cc1', 'composite z-score', 0.19),
  ('CC(C)CNC(=O)[C@@]1(c2ccc([N+](=O)[O-])cc2)CC(=O)N(C(C)C)[C@@H]1c1ccc(CO)cc1', 'composite z-score', 0.3),
  ('C[C@H]1ON(c2ccccc2)[C@@H](c2ccccc2)[C@@H]1C(=O)N1C(=O)OC[C@@H]1c1ccccc1', 'composite z-score', 0.44),
  ('[N-]=[N+]=Nc1ccccc1C[C@]1(C(=O)NCCN2CCOCC2)N=C(c2ccc(OCCCO)cc2)O[C@H]1c1ccccc1N=[N+]=[N-]', 'composite z-score', 1.29);

---

# ASSAY NOTES: basal CRE-LacZ reporter activity in PC12 – cell-based, unstimulated, primary screen (AID 1145)
# MEASUREMENT CONTEXT: no forskolin, luminescence, 4.5 h, called active from +8 up or from −8 down
Calls of active or inactive are those of the source.
Possible outcomes: active, inactive

INSERT INTO results (smiles_string, label_value) VALUES
  ('C[N+](C)(C)CCCCCCNC(=O)[C@@H]1C[C@@H]2C(=O)NCC(=O)N2[C@@H]1c1cccc(OCCO)c1', 'inactive'),
  ('CCCC=C(CCC)[C@@H](NS(=O)(=O)CC)c1ccccc1', 'inactive'),
  ('CCOC(=O)C[C@H]1[C@H](OC(=O)Cc2ccc3c(c2)OCO3)[C@@H](NC(=O)c2ccccc2)c2cc(OCCCO)ccc2N1C(=O)c1ccc2ccccc2n1', 'active'),
  ('CCOC(=O)C[C@H]1[C@H](OC(=O)c2cc3ccccc3oc2=O)[C@@H](NC(=O)c2ccc3ccccc3n2)c2cc(OCCCO)ccc2N1C(=O)c1ccc2ccccc2n1', 'active');

---

# Test system: Neuregulin-1 EGF-like domain
# ASSAY NOTES: small molecules binding NRG1 EGF domain – biochemical, small-molecule microarray, 635 nm fluorescence, primary screen (AID 1081);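 also: binding of the protein to compounds printed on small-molecule microarray slides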
# MEASUREMENT CONTEXT: higher = more signal
QUANTITY KIND: composite z-score

INSERT INTO results (compound, data_value) VALUES
  ('COCCCNC(=O)[C@@]1(C)c2ccccc2C(=O)N(c2ccc(C)cn2)[C@H]1c1ccc(CO)cc1', 0.632),
  ('O=C1C[C@@](C(=O)NCc2ccccc2)(c2ccc([N+](=O)[O-])cc2)[C@@H](c2ccc(CO)cc2I)N1C1CCCCC1', 1.29),
  ('COCCOC(=O)N1C(=O)[C@@]2(c3cc(C#CCC(C(=O)OC)C(=O)OC)ccc31)[C@H](C(=O)N1CCCCCCC1)[C@H]1C(=O)O[C@H](c3ccccc3)[C@H](c3ccccc3)N1[C@@H]2c1ccc(O)cc1', 1.25),
  ('CC(C)CNC(=O)[C@@]1(c2ccc([N+](=O)[O-])cc2)CC(=O)N(C(C)C)[C@@H]1c1ccc(CO)cc1', 0.55),
  ('COCCOC(=O)N1C(=O)[C@@]2(c3cc(C#Cc4ccc(OC)cc4)ccc31)[C@H](c1ccc(OCCO)cc1)N1[C@H](c3ccccc3)[C@H](c3ccccc3)OC(=O)[C@H]1[C@@H]2C(N)=O', 1.26),
  ('C=C(COC)/C(=C/C[C@@H](OC(=O)c1ccncc1)c1cccc(OCCO)c1)c1cc(C(=O)OC)ccc1OC', 1.38),
  ('CCCC=C(CCC)[C@@H](NS(=O)(=O)c1ccccc1)c1ccc(C(F)(F)F)cc1', 1.13),
  ('COC(=O)c1c(CC[C@@H](CO)NC(=O)N[C@@H](C)Cn2cc(C3(O)CCCC3)nn2)oc(C(C)=O)c1C(=O)OC', 1.02),
  ('C=CCC(OC(C)=O)[C@@H]1[C@@H](N(Cc2ccc(-c3cccc(C(F)(F)F)c3)o2)C(=O)c2cccc3ccccc23)c2cc(OCCCO)ccc2N1C(=O)c1ccc(-c2ccccc2)cc1 (some centres undefined)', -0.908),
  ('CCCNC(=O)[C@@H]1c2ccccc2C(=O)N(CC23CC4CC(CC(C4)C2)C3)[C@H]1c1ccc(CO)cc1', 1.26),
  ('O=C(O)[C@]1(CCS(=O)(=O)c2ccccc2)N=C(c2ccc(OCCCO)cc2)O[C@@H]1c1ccccc1', 1.05),
  ('Cc1ccc(C(C)CC(O)C2C=CC3C(=O)N(Cc4ccccc4)C(=O)C3N2n2cnnc2)o1 (centres undefined)', 1.44),
  ('COC(=O)[C@]1(Cc2ccccc2N=[N+]=[N-])N=C(c2ccc(OCCCO)cc2)O[C@@H]1c1ccccc1', 0.929),
  ('CC(C)N1CC=CC23O[C@@H]4C=CCOC(=O)[C@@H]4[C@H]2C(=O)N(CCCCCCO)[C@@H]3C1=O (some centres undefined)', 1.47);

---

# ASSAY NOTES: inhibition of PAO1 biofilm formation – strain PAO1, LB-PBS medium, absorbance 600 nm, primary screen (AID 1176); also: test concentration not given here
# MEASUREMENT CONTEXT: P. aeruginosa PAO1 growth/biofilm, A600, 12 h; higher = more signal
Hi, to clarify the labels: 1 covers z-score from 0.2 upward, 0 covers anything below 0.2.

INSERT INTO measurements (molecule, label_value) VALUES
  ('NC(=O)NCC#Cc1ccc2c(c1)[C@]1(C(=O)N2)[C@H](c2ccc(O)cc2)N2[C@H](c3ccccc3)[C@H](c3ccccc3)OC(=O)[C@H]2[C@@H]1C(=O)NC[C@H](O)c1ccccc1', 0),
  ('N#Cc1ccc(NN2C(C(O)c3ccccc3)C=CC3C(=O)N(c4ccccc4)C(=O)C32)cc1 (configuration not stated)', 0),
  ('CC1(C)[C@@H]2CC(C(O)C3C=CC4C(=O)N(c5ccccc5)C(=O)C4N3Nc3ccccc3F)=C[C@@H]1C2 (some centres not stated)', 0),
  ('COCCOC(=O)N1C(=O)[C@@]2(c3cc(C#Cc4ccc(OC)cc4)ccc31)[C@H](C(=O)N1CCc3cc(OC)c(OC)cc3C1)[C@H]1C(=O)O[C@H](c3ccccc3)[C@H](c3ccccc3)N1[C@@H]2c1ccc(O)cc1', 1),
  ('O=C(C=C(CC(O)c1cccc(Cl)c1)OCCF)OCCF (configuration not stated)', 0),
  ('CCOC(=O)C1=CC[C@@H](c2ccccc2)N(S(=O)(=O)c2ccc(C)cc2)[C@H]1C=C(C)C', 1),
  ('CCCCCCCCCCC(O)C1C=CC2C(=O)NC(=O)C2N1Nc1ccccn1 (configuration not stated)', 1);

---

# ASSAY NOTES: probe aLefty1 binding on compound microarray – biochemical, small-molecule microarray, 635/667 nm fluorescence, primary screen (AID 1153);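 also: score merges spot fluorescence with signal-to-noise ratio from the scanned slide images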
# MEASUREMENT CONTEXT: higher = more signal
QUANTITY KIND: composite z-score

INSERT INTO results (molecule, quantity_kind, data_value) VALUES
  ('CCOC(=O)C[C@H]1[C@H](OC(=O)c2cc3ccccc3oc2=O)[C@@H](NC(=O)c2ccc3ccccc3n2)c2cc(OCCCO)ccc2N1C(=O)c1ccc2ccccc2n1', 'composite z-score', 0.174),
  ('COCCOC(=O)N1C(=O)[C@@]2(c3cc(C#CCC(C(=O)OC)C(=O)OC)ccc31)[C@H](C(=O)N1CCCCCCC1)[C@H]1C(=O)O[C@H](c3ccccc3)[C@H](c3ccccc3)N1[C@@H]2c1ccc(O)cc1', 'composite z-score', 2.46),
  ('C=CCC(OC(C)=O)[C@@H]1[C@@H](N(Cc2ccc(-c3ccccc3)cc2)C(=O)Cc2ccc(OC)cc2)c2cc(OCCCO)ccc2N1C(=O)c1ccc(-c2ccccc2)cc1 (stereo partly drawn)', 'composite z-score', 0.587),
  ('COCCCNC(=O)[C@@]1(Cc2ccccc2N=[N+]=[N-])N=C(c2ccc(OCCCO)cc2)O[C@H]1c1ccccc1CN=[N+]=[N-]', 'composite z-score', 0.152),
  ('[N-]=[N+]=Nc1ccccc1[C@@H]1OC(c2ccc(OCCCO)cc2)=N[C@]1(CCS(=O)(=O)c1ccccc1)C(=O)NCc1ccccc1', 'composite z-score', 1.01),
  ('C[N+](C)(C)CCCC[C@@H]1NC(=O)[C@H]2C[C@@H](C(=O)NCCCCCCN)[C@@H](c3cccc(OCCO)c3)N2C1=O', 'composite z-score', 1.29),
  ('COC(=O)[C@@]1(Cc2ccccc2)[C@H]2c3cc(C(=O)N(C)C)n(Cc4ccc(O)c(OC)c4)c3C[C@H]2CN1C(=O)c1ccccc1', 'composite z-score', 0.774),
  ('CC1=C2[C@@H](CCc3ccccc3)OB(O)C[C@@H]2[C@@H]2C(=O)C=CC(=O)[C@@H]2C1', 'composite z-score', 0.0402),
  ('COC(=O)[C@@]1(Cc2ccc(OC)cc2)[C@H]2c3cc(C(=O)N(C)C)n(CCF)c3C[C@H]2CN1C(=O)c1ccccc1', 'composite z-score', 0.624),
  ('CN(C)C(=O)[C@@]1(Cc2ccccc2N=[N+]=[N-])N=C(c2ccc(OCCCO)cc2)O[C@H]1c1ccccc1N=[N+]=[N-]', 'composite z-score', -0.213),
  ('COC(=O)[C@@]1(Cc2ccc(OC)cc2)[C@H]2c3cc(C(=O)N4CCCC4)n(CCc4ccc(O)c(OC)c4)c3C[C@H]2CN1C(=O)c1ccccc1', 'composite z-score', 0.128),
  ('O=C1O[C@H](c2ccccc2)[C@H](c2ccccc2)N2[C@H]1[C@@H](C(=O)N1CCCCCCC1)[C@]1(C(=O)Nc3ccccc31)[C@H]2c1ccc(O)cc1', 'composite z-score', 2.97),
  ('COCCCNC(=O)[C@@]1(Cc2ccccc2)COC(c2ccc(OCCCO)cc2)=N1', 'composite z-score', 1.1);

These entries and their values trace back to PubChem BioAssay.
